Assignment: determine reported Cytotoxicity (%) for the given substances.
Tested on: HCT-8 host cells (Hs18S)
Conditions: primary screening at 10 uM, from Hs18S ΔCT
Answers are plain numbers, in %.

Example substances with recorded Cytotoxicity (%):
substance	system_name	value_observed
BACITRACIN	HCT-8 host cells (Hs18S)	1.4
DEGUELIN(-)	HCT-8 host cells (Hs18S)	34.2
TANNIC ACID	HCT-8 host cells (Hs18S)	17.0
PHYTOL	HCT-8 host cells (Hs18S)	-33.6
AVOCADYNOFURAN	HCT-8 host cells (Hs18S)	1.4

Q: Using HCT-8 host cells (Hs18S) as the test system, report measured Cytotoxicity (%) of `3-ACETYLGEDUNOL` .
Ans: 56.3

###

Tested on: HCT-8 host cells (Hs18S)
Settings: human, 41 h, 10 μM
Assignment: determine reported Hs18S ΔCT for the given compounds.

Report Hs18S ΔCT for every entry below.
1. COC1=CC(=O)C(C(=O)c2ccccc2)=CC1=O [2-BENZOYL-5-METHOXYBENZOQUINONE]
2. C=CC1=C(C)c2cc3[nH]c(cc4nc(cc5[nH]c(cc1n2)c(C)c5CCC(=O)O)C(CCC(=O)O)=C4C)c(C)c3C=C [PROTOPORPHYRIN IX]
3. CC(=O)O[C@@H]1C[C@H]2C(C)(C)C(=O)CC[C@]2(C)[C@H]2CC[C@@]3(C)[C@H](c4ccoc4)OC(=O)[C@H]4O[C@]43[C@@]21C [DIHYDROGEDUNIN]
4. O=C1O[C@H]([C@@H](O)CO)C(O)=C1O [ASCORBIC ACID]
5. CC1=C2C(O)C(=O)OC3CC4C(C)(C)C(=O)C=C[C@]4(C)C(CC1)[C@]23C (stereo partly drawn) [MEROGEDUNIN]

Ans:
-0.59
0.00
-0.24
0.44
-0.50

###

Assay: in vitro
Conditions: human
quantity_measured: cytotoxicity at 41 h, 10 µM (%)
Answers are plain numbers, in %.

Example molecules with recorded cytotoxicity at 41 h, 10 µM:
molecule	cytotoxicity at 41 h, 10 µM / %
COC1=CC(=O)C(C(=O)c2ccccc2)=CC1=O [2-BENZOYL-5-METHOXYBENZOQUINONE]	-50.7
CO[C@H]1C[C@@H]2CC[C@@H](C)[C@@](O)(O2)C(=O)C(=O)N2CCCC[C@H]2C(=O)O[C@H]([C@H](C)C[C@@H]2CC[C@@H](O)[C@H](OC)C2)CC(=O)[C@H](C)/C=C(\C)[C@@H](O)[C@@H](OC)C(=O)[C@H](C)C[C@H](C)/C=C/C=C/C=C/1C [SIROLIMUS]	47.9
COc1ccc2c(c1)OC[C@H](Cc1ccc(OC)c(O)c1)C2=O [Deoxysappanone B 7,4′-dimethyl ether]	35.1
CC1=C(CCC(=O)O)c2cc3[nH]c(cc4nc(cc5[nH]c(cc1n2)c(C)c5C(C)O)C(C)=C4C(C)O)c(C)c3CCC(=O)O (centres unmarked) [HAEMATOPORPHYRIN]	63.3

Kindly review the next molecule as well.
Q: Annotate the molecule COc1cc(C)c2c(c1C=O)Oc1c(c(C)c(O)c3c1C(O)OC3=O)OC2=O (centres unmarked) [STICTIC ACID] with its measured cytotoxicity at 41 h, 10 µM.
Ans: 5.5

###

Tested on: Cryptosporidium parvum
Assay: qRT-PCR assay of the growth of C. parvum in vitro in HCT-8 host cells (primary and secondary screening, EC50)
Type: cell-based
Details: 10 µM
quantity_measured: Inhibition (%)
Numbers only.

compound	system_name	Inhibition (%)
CC[C@H](C=C[C@@H](C)[C@H]1CC[C@H]2[C@@H]3CCC4=CC(=O)CC[C@]4(C)[C@H]3CC[C@]12C)C(C)C	Cryptosporidium parvum	64.69

Report Inhibition (%) for every entry below.
1. O=C(O)[C@@H]1CCCN1
2. COc1ccc(/C=C/C(=O)c2cc(O)ccc2O)cc1 [2',5'-DIHYDROXY-4-METHOXYCHALCONE]
3. C[C@H]1CC[C@@H](C(C)(C)O)CC2=C1CC[C@@H]2C [GUAIOL(-)]

Ans:
[-22.72, -23.93, -22.71]

###

Test: in vitro
Conditions: human
Counter-ions that a name gives are not always drawn.
Assignment: determine reported cytotoxicity at 41 h, 10 µM for the given compounds.
One number for each entry, in %.

compound	value_observed
O=c1cc(-c2ccc(O)cc2)oc2cc(O)cc(O)c12	3.9
O=C(O)[C@]1(O)C[C@@H](O)[C@@H](O)[C@H](O)C1	14.6
O=C(/C=C/c1ccccc1)c1ccc(O[C@@H]2O[C@H](CO)[C@@H](O)[C@H](O)[C@H]2O)cc1O [2',4'-DIHYDROXYCHALCONE 4'-GLUCOSIDE]	1.9
CC(=O)c1ccc[nH]1	-34.6
NC[C@@H]1O[C@H](O[C@H]2[C@@H](O)[C@H](O[C@@H]3[C@@H](O)[C@H](N)C[C@H](N)[C@H]3O[C@H]3O[C@H](CO)[C@@H](O)[C@H](O)[C@H]3N)O[C@@H]2CO)[C@H](N)[C@@H](O)[C@@H]1O [PAROMOMYCIN SULFATE]	5.5

Report cytotoxicity at 41 h, 10 µM for every entry below.
1. CC(C)=CCCC1(C)C=Cc2c(O)c3c(c(CC=C(C)C)c2O1)OC12C(=CCCC1C(C)(C)O[C@@]2(C/C=C(\C)C(=O)O)C(=O)O)C3=O (stereo partly shown)
2. O=C1c2ccccc2C(=O)c2c(O)c(O)cc(O)c21

Ans:
1. 22
2. -14.3

###

Assay: in vitro
Conditions: human
Counter-ions that a name gives are not always drawn.
quantity_measured: cytotoxicity at 41 h, 10 µM (%)
One number for each entry, in %.

Example compounds with recorded cytotoxicity at 41 h, 10 µM:
compound	units_of_measure	cytotoxicity at 41 h, 10 µM
COC(=O)C[C@H]1C(C)(C)[C@@H](O)[C@@H]2CC3=C4C=C(OC)O[C@@H](c5ccoc5)[C@]4(C)CCC3[C@@]1(C)C2=O (stereo partly shown)	%	-40.1
CC(C)[C@@H]1CC[C@@H](C)C[C@H]1OC(=O)c1ccccc1 [MENTHYL BENZOATE]	%	15.1
COC(=O)c1cc(OC)c(=O)c2c(OC)c(OC)ccc2c1	%	0.1
CC[C@@H]1C(=O)OC[C@@H]1Cc1cncn1C [PILOCARPINE NITRATE]	%	-7.3
CC1=CCc2c(cc3oc(C)cc(=O)c3c2O)OC1	%	-9.7
CC(C)[C@@H]1CC[C@@H](C)CC1=O	%	-14.5

Report cytotoxicity at 41 h, 10 µM for every entry below.
1. CC(C)=CCC/C(C)=C/CC/C(C)=C/CO
2. COc1ccc2c(c1)OCC(Cc1ccc(OC)c(OC(C)=O)c1)C2=O (stereo not shown)
3. CC[C@H]1OC(=O)[C@H](C)[C@@H](O[C@H]2C[C@@](C)(OC)[C@@H](O)[C@H](C)O2)[C@H](C)[C@@H](O[C@@H]2O[C@H](C)C[C@H](N(C)C)[C@H]2O)[C@](C)(O)C[C@@H](C)C(=O)[C@H](C)[C@@H](O)[C@]1(C)O
4. COc1ccc2[nH]cc(CCNC(C)=O)c2c1
5. C#CCCCCCCCCCCCC(O)CC(O)COC(C)=O (stereo not shown) [AVOCADYNE ACETATE]
6. CO[C@H]1[C@H](O)[C@@H](O)[C@H](O)[C@H](O)[C@H]1O

Ans:
1. 1
2. 15.5
3. 35
4. -196
5. 12.2
6. -11.4

Report cytotoxicity at 41 h, 10 µM for every entry below.
1. COC1=C[C@@H](C)[C@@H]2C[C@H]3OC(=O)C[C@H]4C(C)=C(OC)C(=O)[C@H]([C@@]2(C)C1=O)[C@@]34C
2. COc1ccc(-c2coc3cc(O)ccc3c2=O)c(OC)c1
3. O=c1c(-c2ccc(O)cc2)coc2cc(O)ccc12

Ans:
1: 5.1; 2: 11.5; 3: 0.7

Report cytotoxicity at 41 h, 10 µM for every entry below.
1. C/C=C(\C)C(=O)O[C@H]1C[C@@H](OC(C)=O)[C@@]2(C(=O)OC)CO[C@H]3[C@@H](O)[C@@](C)([C@]45O[C@@]4(C)[C@H]4C[C@@H]5O[C@@H]5OC=C[C@@]54O)[C@H]4[C@]1(CO[C@]4(O)C(=O)OC)[C@@H]32
2. CC1(C)CC2C1CCC1(C)OC2(C)CCC1O (stereo not shown)
3. O=C(O)CCC1NCC2CC1CN1CCCCC21 (stereo not shown) [LUPANYL ACID HYDROCHLORIDE]
4. C=CC[C@@H]1/C=C(\C)C[C@H](C)C[C@H](OC)[C@H]2O[C@@](O)(C(=O)C(=O)N3CCCC[C@H]3C(=O)O[C@H](/C(C)=C/[C@@H]3CC[C@@H](O)[C@H](OC)C3)[C@H](C)[C@@H](O)CC1=O)[C@H](C)C[C@@H]2OC

Ans:
[-0.1, 7.2, 6, 10.4]

Report cytotoxicity at 41 h, 10 µM for every entry below.
1. COc1ccc([C@H]2COc3c(ccc(O)c3OC)C2)c(OC)c1O [DUARTIN (-)]
2. C/C(=C\C(=O)OCCCCCCCCC(=O)O)C[C@@H]1OC[C@H](C[C@@H]2O[C@H]2[C@@H](C)[C@H](C)O)[C@@H](O)[C@H]1O
3. CC(C)=CCC[C@@H](C)[C@@H]1CC[C@]2(C)C3=C(CC[C@@]12C)[C@@]1(C)CC[C@H](O)C(C)(C)[C@@H]1CC3
4. COc1cc(-c2coc3cc(OCc4ccccc4)c(OC)c(O)c3c2=O)cc(OCc2ccccc2)c1OC
5. COC(=O)C[C@H]1C(C)(C)C(=O)[C@@H]2CC3C4=CC(=O)O[C@@H](c5ccoc5)[C@]4(C)CC[C@@H]3[C@@]1(C)C2=O (stereo partly shown)
6. Cc1cc(O)c(C=O)c2c1C(=O)Oc1c(COC(=O)/C=C/C(=O)O)c(O)c(C(=O)O)c(C)c1O2

Ans:
1. -15.3
2. 5.8
3. -22.5
4. 0
5. -5.2
6. 6.9

Report cytotoxicity at 41 h, 10 µM for every entry below.
1. CC(C)=CCC[C@]1(C)C=Cc2c(O)c3c(c(CC=C(C)C)c2O1)O[C@]12C(=C[C@@H]4C[C@H]1C(C)(C)O[C@@]2(C/C=C(/C)C(=O)O)C4=O)C3=O
2. CC1=C(/C=C/C(C)=C/C=C/C(C)=C/C=C/C=C(C)/C=C/C=C(C)/C=C/C2=C(C)C(=O)[C@@H](O)CC2(C)C)C(C)(C)C[C@H](O)C1=O
3. COC(=O)CC[C@@H](C)[C@H]1CC[C@H]2[C@@H]3CC[C@@H]4C[C@H](O)CC[C@]4(C)[C@H]3C[C@H](O)[C@]12C [METHYL DEOXYCHOLATE]

Ans:
1. 99.9
2. -34.8
3. 36.7
